Data provenance is PubChem BioAssay (EPA / NIEHS).

Read-out: urokinase plasminogen activator (uPA), PLAU (gene 5328)
protocol summary: BSK_KF3CT_uPA: BioMAP Diversity Plus: KF3CT Assay for urokinase plasminogen activator (uPA) Biomarker Activity (AID 2283075)
particulars: primary human keratinocytes with fibroblasts; actives raise or lower the signal
Activity calls are given as the source filed them. How the source made its calls: active means hit-call score of the fitted dose curve at least 0.9, where 1 is the maximum; inactive means score below 0.9.
Return exactly one item of active, inactive

# count of solved cases: 5
CCCCCCCO ... inactive
O=C1CCCCCCCCCCC1 ... inactive
C=CC(=O)NC(C)(C)C ... inactive
C=CCCCCCCCCC=O ... inactive
CCCCCCOC(=O)CCCCC(=O)OCCCCCC ... inactive

Fill in: this test's call for C=CC(=O)NCOCCCC is ___
inactive

Fill in: this test's call for CC/C=C\C/C=C\C/C=C\CCCCCCCC(=O)OC is ___
active

Fill in: this test's call for CCCCCCCCCCCC(=O)N(C)CC(=O)O is ___
inactive

Fill in: this test's call for C[N+](C)(C)CCCNS(=O)(=O)C(F)(F)C(F)(F)C(F)(F)C(F)(F)C(F)(F)C(F)(F)C(F)(F)C(F)(F)F is ___
inactive

Fill in: this test's call for C1CNCCN1 is ___
inactive

Fill in: this test's call for O=C(Cl)c1c(Cl)c(Cl)c(C(=O)Cl)c(Cl)c1Cl is ___
inactive

Fill in: this test's call for c1ccc2sc(SSN3CCOCC3)nc2c1 is ___
active

Fill in: this test's call for Oc1ccccc1Cc1ccccc1O is ___
inactive

----------
protocol summary: ATG_M_19_CIS: Attagene CIS-FACTORIAL HepG2 Assay for M19 Transcription Factor (Internal Marker) (AID 2282939)
particulars: HepG2 Attagene CIS-FACTORIAL M19 internal marker reporter; actives raise or lower the signal
The source made the active and inactive calls. The calls were made as follows: active = hit-call score of the fitted dose curve at least 0.9, where 1 is the maximum; inactive = score below 0.9.
value type: outcome

Recorded outcome, per entry:
CC(c1cc(C(C)(C)C)cc(C(C)(C)C)c1O)c1cc(C(C)(C)C)cc(C(C)(C)C)c1O ... inactive
CCCCC(=O)O ... inactive
CC(C)(c1ccccc1)c1ccc(Nc2ccc(C(C)(C)c3ccccc3)cc2)cc1 ... inactive
CC(=O)OCC=C(C)C ... inactive
CC(C)CCCCCOC(=O)CS ... inactive

Given CC(=O)CCC1=C(C)CCCC1(C)C , respond with its outcome.
inactive

Given CC1(C)CCC[C@]2(C)[C@H]3CC(=O)O[C@]3(C)CC[C@@H]12 , respond with its outcome.
inactive

Given CC(=O)c1ccc(S(=O)(=O)NC(=O)NC2CCCCC2)cc1 , respond with its outcome.
inactive

Given O=C1CCCCCCCCCCCN1 , respond with its outcome.
inactive

Given CC(CC=O)CC(C)(C)C (stereo not given) , respond with its outcome.
inactive

----------
assayed system: human Retinoid X Receptor beta (RXRb), RXRB (gene 6257) (UniProt P28702)
Sequence (P28702 whole entry, looked up): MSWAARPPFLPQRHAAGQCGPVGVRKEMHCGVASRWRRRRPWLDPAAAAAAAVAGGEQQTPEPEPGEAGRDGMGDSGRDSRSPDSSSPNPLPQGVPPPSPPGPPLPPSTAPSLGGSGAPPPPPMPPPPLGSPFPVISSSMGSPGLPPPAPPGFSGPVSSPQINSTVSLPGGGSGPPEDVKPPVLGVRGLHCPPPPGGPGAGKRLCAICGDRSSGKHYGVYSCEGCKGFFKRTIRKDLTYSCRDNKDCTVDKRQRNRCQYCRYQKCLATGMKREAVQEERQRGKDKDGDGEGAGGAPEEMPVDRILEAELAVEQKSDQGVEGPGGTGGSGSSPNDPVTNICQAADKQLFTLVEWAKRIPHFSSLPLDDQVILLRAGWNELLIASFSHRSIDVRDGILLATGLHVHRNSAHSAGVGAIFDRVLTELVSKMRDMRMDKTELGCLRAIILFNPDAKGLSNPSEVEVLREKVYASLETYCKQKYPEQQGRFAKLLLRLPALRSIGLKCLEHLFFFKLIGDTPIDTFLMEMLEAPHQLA
protocol summary: ATG_RXRb_TRANS: Attagene TRANS-FACTORIAL HepG2 Assay for human Retinoid X Receptor beta (RXRb) (AID 2283013)
Results filed as inconclusive are left out. The source made the active and inactive calls. Rule for the calls: active = hit-call score of the fitted dose curve at least 0.9, where 1 is the maximum; inconclusive = response in the unintended direction; inactive = score below 0.9.
Return exactly one item of active, inactive

# count of solved cases: 10
CCCC(CC)c1ccccc1 (configuration not stated) ... active
CC(=O)OCC=C(C)C ... inactive
O=C(Nc1ccccc1)c1cc(Cl)ccc1O ... inactive
C=CC(=O)NCOCCCC ... inactive
CCCCCCCCCCCC(C)=O ... active
COC(=O)c1ccc(C(=O)OC)c(C(=O)OC)c1 ... inactive
C=CC(=O)NC(C)(C)C ... inactive
O=C1CCCCCCCCCCCN1 ... active
O=C(O)CCC(=O)O ... inactive
CC(=O)CCC1=C(C)CCCC1(C)C ... active

Fill in: this test's call for C=CC(=O)O[C@H]1C[C@@H]2CC[C@@]1(C)C2(C)C is ___
inactive

Fill in: this test's call for CC(=O)OCCc1ccccc1 is ___
inactive

Fill in: this test's call for C[Si](C)(C)N[Si](C)(C)C is ___
inactive

Fill in: this test's call for CC(Cl)COP(=O)(OCC(C)Cl)OCC(C)Cl (configuration not stated) is ___
inactive

Fill in: this test's call for O=C(O[C@@H]1Cc2c(O)cc(O)cc2O[C@@H]1c1cc(O)c(O)c(O)c1)c1cc(O)c(O)c(O)c1 is ___
inactive

Fill in: this test's call for CC(=O)/C=C/C1C(C)=CCCC1(C)C (configuration not stated) is ___
active

Fill in: this test's call for CC1=CCC(C(C)C)C=C1 (configuration not stated) is ___
inactive

Fill in: this test's call for CO[Si](CCCS)(OC)OC is ___
inactive

Fill in: this test's call for CCc1cccc(C)c1N(C(=O)CS(=O)(=O)O)C(C)COC (configuration not stated) is ___
inactive

Fill in: this test's call for CCCCCC(=O)OCC is ___
inactive

Fill in: this test's call for CC(C)(C)N is ___
inactive

Fill in: this test's call for COc1ccc(C(=O)c2ccccc2)c(O)c1 is ___
active

Fill in: this test's call for Cn1ccnc1 is ___
inactive

Fill in: this test's call for CCCCCCCCC(CO)CCCCCC (configuration not stated) is ___
active

Fill in: this test's call for c1ccc(Nc2cccc3ccccc23)cc1 is ___
active
